I'd appreciate it if you could supply TGI values for the items below.
System: PC-3 prostate
experiment: NCI tumour cell line growth inhibition, 48 h
Numbers only; they are read as µM.

Specify measured TGI for COc1cc2c(cc1OCCCC(=O)Nc1cc(C(=O)Nc3cc(C(=O)NCCCN(C)C)n(C)n3)n(C)n1)N=CC1CCCN1C2=O (stereo not given) .
99.3

Specify measured TGI for CCn1c2c(c3c(C(=O)OC)c(O)ccc31)C(=O)c1ccccc1C2=O .
42.7

====

Test system: COLO 205 colon
Valid outcomes are listed here; reply with one: t (active), f (inactive)

I would be grateful if you could indicate the recorded call for CCc1ccc(C2=C(O)C(=O)C(c3ccc(CC)cc3)=C(O)C2=O)cc1 .
f

I would be grateful if you could indicate the recorded call for C=C1C(=O)O[C@H]2[C@H]1CC/C(COC(=O)c1ccc(C(=O)O)s1)=C\CC[C@@]1(C)O[C@@H]21 .
f

I would be grateful if you could indicate the recorded call for O=Nc1c2cccnc2n2nnc3ccc(Cl)cc3c12 .
f

I would be grateful if you could indicate the recorded call for C=C1C(O)C2C(=C(CC(C)C)C13CC3)C(=O)C(C)(C)C2OC (centres undefined) .
f

I would be grateful if you could indicate the recorded call for Cc1ccc(N2C(=O)C(Cl)=C(Nc3cccc(O)c3)C2=O)cc1Cl .
f

I would be grateful if you could indicate the recorded call for CC1=CC[C@@H]2C(C)(C)[C@@H](O)CC[C@@]2(C)[C@@H]1COc1ccc2ccc(=O)oc2c1 .
f

I would be grateful if you could indicate the recorded call for Cc1ccc(S(=O)(=O)NCCN2c3nc4ccccc4cc3Sc3cc4ccccc4nc32)cc1 .
f

I would be grateful if you could indicate the recorded call for C=C(CNCCO)[C@@H]1CC[C@]2(CO)CC[C@]3(C)[C@H](CC[C@@H]4[C@@]5(C)CCC(NCCc6ccc(O)cc6)C(C)(C)[C@@H]5CC[C@]43C)[C@@H]12 (some centres undefined) .
t

I would be grateful if you could indicate the recorded call for CC(O)C(NC(=O)C(CS)NC(=O)C(CO)NC(=O)C(CCCCN)NC(=O)C(Cc1c[nH]c2ccccc12)NC(=O)C(Cc1ccc(O)cc1)NC(=O)C(CS)NC(=O)C(N)Cc1ccccc1)C(N)=O (centres undefined) .
f

====

Tested on: OVCAR-3 ovarian
experiment: NCI tumour cell line growth inhibition, 48 h
recorded_metric: TGI (µM)
Numbers only; they are read as µM.

Answer briefly: TGI recorded on OVCAR-3 ovarian for O=C1CC(O)c2c(Cl)sc(Cl)c21 (stereo not given)
12.9

Answer briefly: TGI recorded on OVCAR-3 ovarian for COc1ccc([N+](=O)[O-])c2c(NCC(O)CO)ccnc12 (stereo not given)
70

====

Form: system (PC-3 prostate), quantity (GI50), values below.

Answer briefly: GI50 recorded on PC-3 prostate for Cc1ccc2c(c1)sc(-c1ccc(N(C)C)cc1)[n+]2C
0.677 µM

Answer briefly: GI50 recorded on PC-3 prostate for CCCCc1cc(O)ccc1O
10.5 µM

Answer briefly: GI50 recorded on PC-3 prostate for CC1(C)C(=O)/C(=C\c2ccco2)C[C@]2(C)[C@H]3CC=C4[C@@H]5C[C@](C)(C(=O)O)CC[C@]5(C)CC[C@@]4(C)[C@]3(C)CC[C@@H]12
3.93 µM

Answer briefly: GI50 recorded on PC-3 prostate for O=C(N/N=C/c1ccc(F)cc1)c1[nH]c2ccc(I)cc2c1-c1ccccc1
0.541 µM

Answer briefly: GI50 recorded on PC-3 prostate for NC(N)=N/N=C/c1c(-c2cc(Cl)sc2Cl)nc2n1CCS2
8.2 µM

Answer briefly: GI50 recorded on PC-3 prostate for Nc1ccc2c(c1)[O][Sn]([c]1ccccc1)([c]1ccccc1)[O]C2=O
12.4 µM

Answer briefly: GI50 recorded on PC-3 prostate for O=Nc1c2cccnc2n2nnc3ccc(Cl)cc3c12
1.09 µM
